Test system: A498 renal
Experiment: NCI tumour cell line growth inhibition, 48 h
Returns one of Condition met or Condition not met; Condition met when TGI is >= 30 µM.

Query string: Please tell me: is the compound "COc1cc2nccc(Oc3ccc(NC(=O)NC4CC4)c(Cl)c3)c2cc1C(N)=O" at or over 30 µM in terms of TGI?
Result string: Condition met

Query string: Has "Cc1ccc(Cl)cc1Nc1nc(C(F)(F)F)ccc1C(=O)N/N=C/c1cccnc1" a recorded TGI greater than or equal to 30 µM?
Result string: Condition not met

Query string: Threshold query (TGI >= 30 µM) on "Nc1cc(F)ccc1CC(=O)O"
Result string: Condition met

Query string: // inclusive: TGI at least 30 µM? input: "COC(=O)[C@H](Cc1ccccc1)NC(=O)/C(=C/C(C)C)NC(=O)[C@H](CCSC)NC=O"
Result string: Condition met

Query string: Is the recorded value of TGI equal to or greater than 30 µM for this compound? COC1C(CO)OC(n2c3ccccc3c3c4c(c5c6ccccc6[nH]c5c32)C(=O)NC4=O)C(O)C1O (stereo unspecified)
Result string: Condition not met

Query string: Decide: is the reported value of TGI for "COc1cc(/C=C2\C[C@H]3[C@@H]4CC=C5C[C@@H](O)CC[C@]5(C)[C@H]4CC[C@]3(C)[C@H]2O)ccc1OCCN1CCCC1" equal to or greater than 30 µM?
Result string: Condition met

Query string: Quick check: does Nc1nc2c(ncn2C2CCC(CO)O2)c(=O)n1C(=O)c1ccccc1 (stereo unspecified) have TGI greater than or equal to 30 µM?
Result string: Condition met

Query string: Answer whether TGI of "O=C1c2cccnc2S(=O)(=O)N1c1ccc(Oc2ccccc2)cc1" is greater than or equal to 30 µM.
Result string: Condition met

Query string: Does the reported TGI for "N#Cc1cnc(-n2[nH]c3c(c2=O)CCCC3)[nH]c1=O" fall at or above the 30 µM mark?
Result string: Condition met

Query string: API: above_or_equal(metric=TGI, cutoff=30 µM) for item O=C1c2[nH]cc(CNC3CN4CCC3CC4)c2C(=O)c2c1c(O)c1ccccc1c2O (stereo unspecified)
Result string: Condition not met

Query string: Is TGI for "NC(=S)N/N=C/c1nccc2ccccc12" at or above 30 µM?
Result string: Condition met

Query string: Would you say "O=Cc1c2n(c3ccccc13)N[C@@](Cc1ccc(O)cc1)(C(=O)O)C2" shows TGI at minimum 30 µM?
Result string: Condition met

Query string: Can "NCCCNc1nc2ccccc2c2c(=O)c3cc(F)cc(F)c3sc12" be said to have TGI at or above 30 µM?
Result string: Condition not met

Query string: Can "CCOC(=O)c1ccc(Nc2sc(C(=O)c3ccc(Br)cc3)c(N)c2C#N)cc1" be said to have TGI at or above 30 µM?
Result string: Condition not met

Query string: Decide: TGI of "C[C@]12CCc3nc(Nc4cccc(O)c4)sc3C1=CC[C@@H]1[C@@H]2CC[C@]2(C)/C(=N\NC(N)=S)CC[C@@H]12" >= 30 µM?
Result string: Condition not met

Query string: Determine whether this compound has TGI no lower than 30 µM: "COc1ccc(N=Cc2c(O)ccc3c2oc2cc(Cl)c(O)c(Cl)c23)cc1"
Result string: Condition not met

Query string: Is it the case that "C[n+]1c(/C=C/c2c[nH]c3ccccc23)ccc2ccccc21" has TGI reaching or exceeding 30 µM?
Result string: Condition not met

Query string: Reported TGI at or above 30 µM? "S=C(NNC1=NCCCCN1)Nc1ccc(Cl)cc1"
Result string: Condition met

Query string: Could you please find out whether "COc1cc(C(=O)/C=C/c2ccc(OCCSCCCCCCCCCCSCCOc3ccc(/C=C/C(=O)c4cc(OC)c(OC)c(OC)c4)cc3)cc2)cc(OC)c1OC" has TGI that meets 30 µM or exceeds it?
Result string: Condition met

Query string: Exam item: decide whether the reported TGI for "Cc1c(O)c2ccccc2oc1=O" is at least 30 µM.
Result string: Condition met

Query string: Dear colleague, could you confirm whether "O=[N+]([O-])c1ccc2nc(Cl)n[n+]([O-])c2c1" has TGI at or above 30 µM?
Result string: Condition not met

Query string: Does the reported TGI for COc1ccc(CC2C3=C(CCN2C(=O)C2CCC2)CC2(CC3)OCCO2)cc1O (stereo unspecified) fall at or above the 30 µM mark?
Result string: Condition met

Query string: API: above_or_equal(metric=TGI, cutoff=30 µM) for item C=C=C(C(=O)OC)S(=O)c1ccccc1[N+](=O)[O-] (stereo unspecified)
Result string: Condition met

Query string: Record CN(C)CCCC1c2ccccc2Oc2ccc(C(F)(F)F)cc21 (stereo unspecified) ; criterion: TGI no lower than 30 µM. Met?
Result string: Condition not met

Query string: Quick check, TGI >= 30 µM? "O=c1ccn(CC2(CO)CCCC2)c(=O)[nH]1"
Result string: Condition met

Query string: Is reported TGI greater than or equal to 30 µM here: "FC(F)(F)c1ccc(Cc2nc3cc4ccccc4cc3[nH]2)cc1"
Result string: Condition met

Query string: # check: TGI of "C=CCc1[nH]c2c(OCc3ccccc3)cc(N(CC=C)C(C)=O)cc2c1C" is greater than or equal to 30 µM
Result string: Condition not met

Query string: Decide: TGI of "CCOc1ccc(N/C(=C(/C(Cl)=C(/Cl)Nc2ccccc2)[N+](=O)[O-])n2nnc3ccccc32)cc1" >= 30 µM?
Result string: Condition met

Query string: Is the recorded value of TGI equal to or greater than 30 µM for this compound? "CC(=O)Nc1ccccc1-c1nc2ccccc2nc1C"
Result string: Condition met

Query string: // inclusive: TGI at least 30 µM? input: CCOP(=O)(C=C=C1CCC2[C@@H]3CCc4cc(OC)ccc4C3CC[C@]12C)OCC (stereo partly specified)
Result string: Condition not met

Query string: Does the compound "CN(C)CCNc1nc2ccccc2c2c1CCCC2" have recorded TGI that is 30 µM or more?
Result string: Condition met

Query string: Answer whether TGI of "COC1=CC(c2ccc[nH]2)=N/C1=C\c1[nH]c(C)c(CC(=O)OCc2ccccc2)c1CCC(=O)OCc1ccccc1" is greater than or equal to 30 µM.
Result string: Condition not met

Query string: Exam item: decide whether the reported TGI for "C[Si](C)(C)C#Cc1cc(-c2nc3ccccc3s2)ccc1N" is at least 30 µM.
Result string: Condition met

Query string: Record Clc1c(Cl)c(Cl)c2c(nnn2C2CCCO2)c1Cl (stereo unspecified) ; criterion: TGI no lower than 30 µM. Met?
Result string: Condition met

Query string: Is TGI at least 30 µM? Consider C=C1CCCC2[C@](C)(CC3=C(Cl)C(=O)C=C(OC)C3=O)C(C)CC[C@]12C (stereo partly specified)
Result string: Condition not met

Query string: Quick check, TGI >= 30 µM? "COc1ccc(OC(C)=O)c2c1CCC=CC2=O"
Result string: Condition met

Query string: Test whether the compound CCOC(=O)C1SC(=Nc2cccc(Cl)c2C)N=C1C (stereo unspecified) records TGI of 30 µM or higher.
Result string: Condition met

Query string: Decide: is the reported value of TGI for "Cc1sc2[nH]c(=O)oc(=O)c2c1C" equal to or greater than 30 µM?
Result string: Condition met

Query string: Given "CC(=O)Nc1ccc(NS(=O)(=O)c2ccc3nc(C)n(NS(=O)(=O)c4ccc(NC(C)=O)cc4)c(=O)c3c2)cc1" , state whether its TGI is at least 30 µM.
Result string: Condition met

Where do the numbers come from? From PubChem BioAssay (NCI).
